target: wild type C-South African (C-SA) HIV-1 protease (Human immunodeficiency virus type 1 group M subtype B, UniProt P12497, H557K/I503V/I581L/L507I/L577M/M524I/R529K/T500S); construct: Over-expression, extraction and purification of the C-SA protease and in vitro HIV-1 protease activity were reported in our earlier publications; assay: in vitro HIV-1 protease inhibition (C-SA PR)
Peptide text beside a SMILES is read from it. * marks the point of attachment. X2 = O=C1OC2(C(=O)*)C3C4CC5C6C4C2C6C1(O)C53
Exercise: for every item that follows, state its recorded IC50.
Use nM as the unit, but write only the number.

IC50 lookup needed for COC(=O)N[C@H](C(=O)N[C@@H](Cc1ccccc1)[C@@H](O)CN(Cc1ccc(-c2ccccn2)cc1)NC(=O)[C@@H](NC(=O)OC)C(C)(C)C)C(C)(C)C [Atazanavir, reference compound] , thanks. 4

IC50 lookup needed for CC[C@H](C)[C@H](NC(=O)[C@H](C)NC(=O)[C@H](CCC(=O)O)NC(=O)C12OC(=O)C3(O)C4C5CC(C6C5C3C61)C42)C(=O)N[C@@H](CO)C(N)=O (some centres unmarked) [PCU-lactone-CO-EAIS] (X2-EAIS-NH2) , thanks. 850

IC50 lookup needed for CC[C@H](C)[C@H](NC(=O)[C@H](C)NC(=O)C12OC(=O)C3(O)C4C5CC(C6C5C3C61)C42)C(=O)N[C@@H](CO)C(N)=O (some centres unmarked) , thanks. 830

IC50 lookup needed for CC[C@H](C)[C@H](NC(=O)[C@H](C)NC(=O)[C@H](CCC(=O)O)NC(=O)C12OC(=O)C3(O)C4C5CC(C6C5C3C61)C42)C(N)=O (some centres unmarked) , thanks. 2600
